# reported Percent viability; entries follow
# System: MKL-2 cells (VP-MCC)
# test: qHTS cell viability (CellTiter-Glo, 72 h; primary and follow-up small molecule screen)
# Type: cell-based, human
# measurement_context: MKL2, 72h, Log (M) -8.67631

[
  {
    "molecule": "CCn1cc(-c2ccnc3[nH]c(-c4cccc(CN(C)C)c4)cc23)c(-c2ccc(NC(=O)N(C)C)cc2)n1 [GSK-1070916A, reference compound]",
    "Percent viability, %": 59.6
  },
  {
    "molecule": "Cc1cc(Nc2cc(N3CCN(C)CC3)nc(Sc3ccc(NC(=O)C4CC4)cc3)n2)[nH]n1 [Tozasertib, reference compound]",
    "Percent viability, %": 111.3
  },
  {
    "molecule": "CCS(=O)(=O)c1cccc(-c2cc(C(=O)NC3CCN(C)CC3)c(C)c3[nH]c4ncc(C)cc4c23)c1 [TAK-901, reference compound]",
    "Percent viability, %": 94.9
  },
  {
    "molecule": "O=C(Nc1cccc(Cl)c1)Nc1ncc(CCNc2ncnc3ccsc23)s1 [SNS-314, reference compound]",
    "Percent viability, %": 62.3
  }
]

* * *

# Test system: MKL-2 cells (VP-MCC)
# test: qHTS cell viability (CellTiter-Glo, 72 h; primary and follow-up small molecule screen)
# Assay type: cell-based, human
# measurement_context: area under the dose-response curve, MKL-2 cells; AUC<450 = reduced viability
Counter-ions that a name gives are not always drawn.
property: MKL2_AUC

[
  {
    "compound": "Nc1ccc(C(=O)NCC(=O)O)cc1",
    "property": "MKL2_AUC",
    "data_value": 407.303
  },
  {
    "compound": "Cc1c(C)n(Cc2ccc(-c3ccccc3C(=O)O)cc2)c2ccc(C(=O)N[C@@H](C)c3ccc([N+](=O)[O-])cc3)cc12",
    "property": "MKL2_AUC",
    "data_value": 319.019
  },
  {
    "compound": "Cc1nc2c([nH]1)c(=O)n(C)c(=O)n2Cc1ccco1",
    "property": "MKL2_AUC",
    "data_value": 443.745
  },
  {
    "compound": "Oc1ccc(O)cc1 [Hydroquinone]",
    "property": "MKL2_AUC",
    "data_value": 400.457
  },
  {
    "compound": "COc1cc(C(=O)NCc2ccc(OCCN(C)C)cc2)cc(OC)c1OC [Trimethobenzamide hydrochloride]",
    "property": "MKL2_AUC",
    "data_value": 453.926
  },
  {
    "compound": "CC[N+](CC)(CC)CCOC(=O)C(C1CCCC1)C1CCCC1 [Diponium bromide]",
    "property": "MKL2_AUC",
    "data_value": 434.115
  },
  {
    "compound": "Cc1nc2ccccn2c(=O)c1CCN1CCC(C(=O)c2ccc(F)cc2)CC1",
    "property": "MKL2_AUC",
    "data_value": 400.974
  },
  {
    "compound": "CC(=O)SCC(Cc1ccccc1)C(=O)NCC(=O)OCc1ccccc1 (stereo not drawn)",
    "property": "MKL2_AUC",
    "data_value": 385.069
  },
  {
    "compound": "CCN(CC)CCNC(=O)c1ccc(NC(C)=O)cc1 [Acecainide hydrochloride]",
    "property": "MKL2_AUC",
    "data_value": 429.744
  }
]
